Molecular target: St-B17 serotonin receptor (Rattus norvegicus, UniProt P31388, L57V)
Sequence (P31388 with tags, fused parts or gaps L57V): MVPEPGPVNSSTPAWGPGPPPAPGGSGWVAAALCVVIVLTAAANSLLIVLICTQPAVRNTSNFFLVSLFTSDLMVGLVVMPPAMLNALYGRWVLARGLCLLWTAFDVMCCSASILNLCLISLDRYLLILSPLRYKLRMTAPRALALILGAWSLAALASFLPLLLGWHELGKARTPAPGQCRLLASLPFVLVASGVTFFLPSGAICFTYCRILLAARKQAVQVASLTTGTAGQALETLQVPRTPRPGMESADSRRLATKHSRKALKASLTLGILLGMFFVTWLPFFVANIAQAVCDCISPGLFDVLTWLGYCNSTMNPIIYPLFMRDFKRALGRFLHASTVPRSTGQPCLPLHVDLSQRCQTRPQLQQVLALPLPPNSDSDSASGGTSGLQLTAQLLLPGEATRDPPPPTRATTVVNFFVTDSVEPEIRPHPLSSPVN
Test: [3H]-5-HT competition binding, Cos-7 cell membranes expressing St-B17
Set-up: expressed in transfected cells; host or cells: Cos-7 cells, transient transfection, crude membranes
Conditions: read-out: Ki vs. [3H]-5-HT, Mean ± SEM
// reported pKi for each item listed
# pKi = -log10(concentration in molar units)

Example cases with answers are listed next.
pKi in this record for "CN1CCN(C2=Nc3ccccc3Oc3ccc(Cl)cc32)CC1" : 7.25

# pKi of "CN1C[C@H](CNC(=O)OCc2ccccc2)C[C@@H]2c3cccc4c3c(cn4C)C[C@H]21" = 7.21

Attention now shifts to the item below.
GET /value?item= "CN(C)CCC=C1c2ccccc2CCc2ccccc21" &field=pKi returns 7.09

====

Molecular target: St-B17 serotonin receptor (Rattus norvegicus, UniProt P31388, L57V)
Assay: [125I]-LSD competition binding, Cos-7 cell membranes expressing St-B17
Set-up: expressed in transfected cells; host or cells: Cos-7 cells, transient transfection, crude membranes
Settings: qualitative statement
REPORTED PROPERTY: affinity for St-B17 (in words)

Please review the following examples before continuing.
Notebook: CN1[C@@H]2CC[C@H]1C[C@@H](OC(=O)c1c[nH]c3ccccc13)C2 [ICS 205,930] , affinity for St-B17 (in words) read as virtually no affinity

Recorded result, CN1[C@@H]2CC[C@H]1C[C@@H](OC(=O)c1cc(Cl)cc(Cl)c1)C2 [MDL 72222] , affinity for St-B17 (in words): virtually no affinity

// sample CCN(CC)C(=O)[C@@H]1C=C2c3cccc4[nH]c(I)c(c34)C[C@H]2N(C)C1 [[^125I]-LSD, lysergic acid diethylamide] , its affinity for St-B17 (in words) was relatively high affinity

The value of affinity for St-B17 (in words) measured for the compound CN1CCN(c2nc3cc(C(F)(F)F)ccc3n3cccc23)CC1.O=C(O)/C=C\C(=O)O.O=C(O)/C=C\C(=O)O [CGS 12066B] turned out to be relatively low affinity

Record CCCN1C[C@H](CSC)C[C@@H]2c3cccc4[nH]cc(c34)C[C@H]21 [Pergolide] , field affinity for St-B17 (in words): relatively high affinity

Further cases:
Quick note, affinity for St-B17 (in words) for O=C(c1ccc(F)cc1)C1CCN(CCn2c(=O)[nH]c3ccccc3c2=O)CC1 [ketanserin] landed at relatively low affinity

// field: affinity for St-B17 (in words); key: CCCN(CCC)C1CCc2cccc(O)c2C1 (stereo not shown) [8-OH-DPAT] ; value = relatively low affinity

====

Molecular target: St-B17 serotonin receptor (Rattus norvegicus, UniProt P31388, L57V)
Details: KD, representative experiment (FIG. 1, scatchard analysis), single representative experiment
REPORTED PROPERTY: pKd
Formally, pKd is defined as -log10 of the concentration c, with c in mol/L.

Bench note, St-B17 serotonin receptor (Rattus norvegicus, UniProt P31388, L57V): CCN(CC)C(=O)[C@@H]1C=C2c3cccc4[nH]c(I)c(c34)C[C@H]2N(C)C1 [[^125I]-LSD, lysergic acid diethylamide] , pKd reads 8.82

====

Molecular target: St-B17 serotonin receptor (Rattus norvegicus, UniProt P31388, L57V)
Experiment: Saturation analysis of [3H]-5-HT binding in transfected Cos-7 cells
Design: expressed in transfected cells; host or cells: Cos-7 cells, transient transfection, crude membranes
Conditions: [3H]-5-HT saturation binding, n=3
REPORTED PROPERTY: pKd
Here pKd is given on a logarithmic scale as minus log10 of the concentration in mol/L.

The compound listed as NCCc1c[nH]c2ccc(O)cc12 [[^3H]-5-HT] shows pKd equal to 7.43

Just for reference, patent US6844190B2 is where these values come from.
